These data points were gathered from paper PMC9775191.

- Tested on: G. duodenalis BRIS/91/HEPU/1279
- Assay Comment: Primary Giardia screen at 10 µM (live-cell imaging, automated counting)
- Format: cell-based, Giardia duodenalis
- Run Conditions: 48 h, first singlicate assay
Decide using % Inhibition n=1 48h alone. Strictly below 6%: satisfied. Equal to or above 6%: not satisfied.

Is the reported % Inhibition n=1 48h for Cc1cc(C)n(Cc2ccc(C(=O)N3CCN(Cc4n[nH]c(C)n4)CC3)cc2)n1 strictly below 6%?
satisfied

Is the reported % Inhibition n=1 48h for CCC1c2ccsc2CCN1C(=O)c1cc(-c2csc(C)n2)c[nH]1 (stereo not drawn) strictly below 6%?
satisfied

Is the reported % Inhibition n=1 48h for O=C(C1CCCN(S(=O)(=O)c2ccccc2)C1)N1CCCC(C(F)(F)F)C1 (stereo not drawn) strictly below 6%?
not satisfied

Is the reported % Inhibition n=1 48h for CC1Cc2ccccc2N1C(=O)c1cc(-c2cccnc2)[nH]n1 (stereo not drawn) strictly below 6%?
not satisfied

Is the reported % Inhibition n=1 48h for Cc1ccc(S(=O)(=O)N2CCN(C)c3ccccc32)cc1 strictly below 6%?
not satisfied

Is the reported % Inhibition n=1 48h for Cc1noc(COC2CCCN(C(=O)c3nn(C)c4ccccc34)C2)n1 (stereo not drawn) strictly below 6%?
satisfied

Is the reported % Inhibition n=1 48h for O=C(NCCN1CCCCCC1=O)C1CCCN1C(=O)C1CCCC1 (stereo not drawn) strictly below 6%?
satisfied

Is the reported % Inhibition n=1 48h for CCN1CCc2[nH]c3ccc(NC(=O)c4ccn(CC)n4)cc3c2C1 strictly below 6%?
satisfied

Is the reported % Inhibition n=1 48h for CCCn1c(=O)c2c(nc3n2CCN3c2ccc(CC)cc2)n(C)c1=O strictly below 6%?
satisfied

Is the reported % Inhibition n=1 48h for Cc1cc(C(=O)N2CCC(Oc3ccccc3)CC2)[nH]n1 strictly below 6%?
satisfied

Is the reported % Inhibition n=1 48h for CCCCN(CC)CCNC(=O)C1=C(C)C(=O)OC12CCN(CC)CC2 strictly below 6%?
satisfied

Is the reported % Inhibition n=1 48h for Cc1[nH]c(=O)sc1S(=O)(=O)N1CCN(c2ccccc2[N+](=O)[O-])CC1 strictly below 6%?
satisfied

Is the reported % Inhibition n=1 48h for O=C(Nc1ccc2sc(NS(=O)(=O)c3ccccc3)nc2c1)Nc1ccccc1Cl strictly below 6%?
satisfied

Is the reported % Inhibition n=1 48h for O=C(Nc1cccc(F)c1)c1nnc(C2CCCN2C(=O)Nc2cccc(C(F)(F)F)c2)s1 (stereo not drawn) strictly below 6%?
not satisfied

Is the reported % Inhibition n=1 48h for O=C([C@H]1C[C@H]2CCCN2[C@@]12C(=O)Nc1ccccc12)N1CCN(c2ccccc2)CC1 strictly below 6%?
not satisfied

Is the reported % Inhibition n=1 48h for COc1cc(-c2noc(-c3cc(C4CC4)n[nH]3)n2)cc(OC)c1OC strictly below 6%?
not satisfied

Is the reported % Inhibition n=1 48h for CN(C)[C@@H]1CN(Cc2ccc3[nH]ccc3c2)CC[C@H]1CO strictly below 6%?
not satisfied

Is the reported % Inhibition n=1 48h for CC1(c2nc(C3CC3)no2)CCCN(C(=O)CCC2CCCC2)C1 (stereo not drawn) strictly below 6%?
satisfied

Is the reported % Inhibition n=1 48h for Cc1ccc(NC(=O)CN2N=C(C(=O)Nc3ccc(F)cc3)CCC2=O)cc1F strictly below 6%?
not satisfied

Is the reported % Inhibition n=1 48h for CSc1ccc(N2CC(C(=O)N3c4ccccc4CC3C)CC2=O)cc1 (stereo not drawn) strictly below 6%?
satisfied

Is the reported % Inhibition n=1 48h for CC(=O)N1CCCN(C(=O)c2cnn(C(C)(C)C)c2C)CC1 strictly below 6%?
satisfied

Is the reported % Inhibition n=1 48h for CC(C)(C)OC(=O)N1CCN(S(=O)(=O)C2CN(C(=O)C3(CN)CCC3)C2)CC1 strictly below 6%?
satisfied

Is the reported % Inhibition n=1 48h for CCn1cc(C(=O)Nc2ccccc2O)c(=O)c2cc(F)c(N3CCN(C(C)=O)CC3)cc21 strictly below 6%?
satisfied

Is the reported % Inhibition n=1 48h for O=C(Nc1cccc(O)c1)c1cc(-c2cccnc2)on1 strictly below 6%?
not satisfied

Is the reported % Inhibition n=1 48h for CCOc1cc(C(=O)Nc2ccc(C3=CSC4=NCCCN34)cc2)ccc1OC(F)F strictly below 6%?
satisfied

Is the reported % Inhibition n=1 48h for O=C(c1cc(C2CC2)nc2ccccc12)N1CC2CCC1C2 (stereo not drawn) strictly below 6%?
not satisfied

Is the reported % Inhibition n=1 48h for Cc1csc(C2(NC(=O)Nc3ccc4c(c3)CCO4)CCC2)n1 strictly below 6%?
not satisfied

Is the reported % Inhibition n=1 48h for CCCN(c1ccccc1C(=O)O)S(=O)(=O)c1ccc2[nH]c(=O)[nH]c2c1 strictly below 6%?
not satisfied

Is the reported % Inhibition n=1 48h for CCCOc1ccc(-c2noc(Cc3nc(-c4cccc(OC)c4)cs3)n2)cc1 strictly below 6%?
satisfied

Is the reported % Inhibition n=1 48h for O=C(c1noc2ncnc(N3CCCC3)c12)N1CCN(c2ccccn2)CC1 strictly below 6%?
not satisfied

Is the reported % Inhibition n=1 48h for Cc1ccc(-n2nnc(-c3nc(-c4ccc5c(c4)OCO5)no3)c2N)cc1 strictly below 6%?
satisfied

Is the reported % Inhibition n=1 48h for CC(=O)N1CCCN(C(=O)c2cc(C3CC3)[nH]n2)CC1 strictly below 6%?
satisfied

Is the reported % Inhibition n=1 48h for COc1ccc(C2CCC(=O)N2CCN2CCOCC2)cc1 (stereo not drawn) strictly below 6%?
not satisfied

Is the reported % Inhibition n=1 48h for CCc1c(C2CCN(C(=O)c3cnccn3)CC2)noc1N strictly below 6%?
not satisfied

Is the reported % Inhibition n=1 48h for O=C(CS(=O)(=O)c1ccc2c(c1)S(=O)(=O)N=CN2)Nc1ccccc1 strictly below 6%?
not satisfied

----------
- Test system: G. duodenalis BRIS/91/HEPU/1279
- Assay Comment: Primary Giardia screen at 10 µM (live-cell imaging, automated counting)
- Format: cell-based, Giardia duodenalis
- Run Conditions: 48 h, first singlicate assay
- Protocol: Each compound was assessed in singlicate, at a final concentration of 10 μM (0.4 μL of a 5 mM stock; diluted to a final volume of 200 μL in culture medium; 0.2% DMSO). […] Plates were incubated in sealed chambers filled with 3% O2, 5% CO2 in N2 and growth was assessed at 24 and 48 h using live cell imaging and automated counting as previously described. […] The reliability of these assays was assessed by calculating Z’ factors for each plate as previously described.
Measured Parameter: % Inhibition n=1 48h (%)
Express your answer in %, writing the number without its unit.

Look up % Inhibition n=1 48h of Cc1ccc(-c2nc(C(=O)N3CCN(c4ccc(Cl)cc4)CC3)cs2)s1 [SN00796526] and report it.
7.8

Look up % Inhibition n=1 48h of O=C(Cn1nc2n(c1=O)CCCC2)NCc1ccccc1Br [SN00801654] and report it.
6.0

Look up % Inhibition n=1 48h of CCc1csc(C2CCCN(C(=O)c3ccc4c(c3)OCO4)C2)n1 (stereo not shown) [SN00781524] and report it.
0.0

Look up % Inhibition n=1 48h of Cc1nn(C)c(N2CCN(C(C)c3nc4ccccc4s3)CC2)c1[N+](=O)[O-] (stereo not shown) [SN00772279] and report it.
10.6

Look up % Inhibition n=1 48h of Cc1nc(CN2CCCNCC2)oc1C [SN00778765] and report it.
0.0

Look up % Inhibition n=1 48h of Cc1nnc(NC(=O)c2ccc3c(=O)n4c(nc3c2)CCCCCC4)s1 [SN00777547] and report it.
37.7

Look up % Inhibition n=1 48h of O=S(=O)(c1cccs1)N1CCc2[nH]cnc2C1 [SN00798784] and report it.
0.0

Look up % Inhibition n=1 48h of CC(NC(=O)C1CCOCC1)c1nc(-c2cccnc2)cs1 (stereo not shown) [SN00769908] and report it.
0.0

Look up % Inhibition n=1 48h of COc1cc(C(=O)NCC2(c3ccccc3)CCOCC2)cc(OC)c1OC [SN00783529] and report it.
6.5

Look up % Inhibition n=1 48h of Cc1ccc(Cl)cc1NC(=O)C1CC2CSCN2C12C(=O)Nc1ccccc12 (stereo not shown) [SN00789076] and report it.
17.2

Look up % Inhibition n=1 48h of CCc1noc(C)c1C(=O)N1CCCN(Cc2csc(C)n2)CC1 [SN00778114] and report it.
29.4

Look up % Inhibition n=1 48h of Cc1sc(-n2cccc2)c(C(=O)NC2CCCCCC2)c1C [SN00776382] and report it.
0.0

Look up % Inhibition n=1 48h of CCCOc1ccc(CN2CCCC2c2c(C)noc2C)cc1 (stereo not shown) [SN00793908] and report it.
16.7

Look up % Inhibition n=1 48h of Cc1ccc(C2=CC(c3ccccc3)n3nnnc3N2CC(=O)N2CCN(c3ccccc3)CC2)cc1 (stereo not shown) [SN00786799] and report it.
34.8

Look up % Inhibition n=1 48h of Cc1csc(-c2ccc(CNC(=O)c3n[nH]c4ccccc34)cc2)n1 [SN00799624] and report it.
25.2

Look up % Inhibition n=1 48h of CCCC(=O)Nc1cc(F)c2nc(N3CCCCC3)ccc2c1 [SN00795955] and report it.
0.0

Look up % Inhibition n=1 48h of Cn1c(C(=O)NCc2ccc(F)cc2)cc2c(=O)n3ccccc3nc21 [SN00787284] and report it.
0.0

Look up % Inhibition n=1 48h of O=C(Nc1nnc(-c2ccccn2)[nH]1)C1CC(=O)N(CC(F)(F)F)C1 (stereo not shown) [SN00776806] and report it.
9.5

Look up % Inhibition n=1 48h of CCCN(C)C(=O)Cn1c(=O)n(-c2ccc(F)cc2)c(=O)c2ccccc21 [SN00802614] and report it.
32.9

Look up % Inhibition n=1 48h of CSc1ccc(NC(=O)N2C[C@@H]3C[C@H]2C[C@@H]3NC(=O)c2cccs2)cc1 (relative stereo) [SN00800991] and report it.
17.8

Look up % Inhibition n=1 48h of CCCCNC(=O)c1cccc(N2CCCC2=O)c1 [SN00784930] and report it.
4.7

Look up % Inhibition n=1 48h of CCN(CC)C(=O)C1CSCN1C(=O)c1cc(C)nc2c1nc1n2CCCCC1 (stereo not shown) [SN00779876] and report it.
62.1

Look up % Inhibition n=1 48h of O=C(Cc1noc(-c2ccoc2)n1)NC1CCCCC1 [SN00773041] and report it.
3.1

Look up % Inhibition n=1 48h of Cc1ccc(CNC(=O)c2ccc3c(c2)CCN3S(=O)(=O)c2ccc(C)cc2)cc1 [SN00785985] and report it.
38.5

Look up % Inhibition n=1 48h of COc1cc(CNCCNC(=O)c2nonc2N)ccc1OCc1ccc(F)cc1 [SN00784068] and report it.
0.0

Look up % Inhibition n=1 48h of COCCn1cc2c3c(cccc31)CN(C(=O)c1cccc(Cl)c1)CC2 [SN00798558] and report it.
26.2

Look up % Inhibition n=1 48h of O=C(CCN1C(=O)CCC1=O)N1CCCC(N2CCCCCC2)C1 (stereo not shown) [SN00772233] and report it.
7.1

Look up % Inhibition n=1 48h of CN(C)c1nc(N(C)C)nc(N2CC(=O)N(c3ccc(Cl)c(Cl)c3)C2=N)n1 [SN00783378] and report it.
16.0

Look up % Inhibition n=1 48h of CCn1nnc2c(C(=O)NCCC3=CCCCC3)c(C)sc2c1=O [SN00799184] and report it.
2.6

Look up % Inhibition n=1 48h of Cn1ncc2c(=O)[nH]c(CN3CCCC3Cc3ccccc3)nc21 (stereo not shown) [SN00772513] and report it.
21.0

Look up % Inhibition n=1 48h of COc1ccc(Cl)cc1NC(=O)Nc1ccc2c(c1)CN(Cc1ccccc1)C2 [SN00796317] and report it.
57.6

Look up % Inhibition n=1 48h of Cc1ccc(C2(C)NC(=O)N(Cc3ncc(-c4ccccc4)o3)C2=O)cc1 (stereo not shown) [SN00774002] and report it.
0.0

Look up % Inhibition n=1 48h of c1ccc(-c2nnc(CN3CCn4c(nnc4C4CC4)C3)o2)cc1 [SN00773167] and report it.
0.0

Look up % Inhibition n=1 48h of COc1ccc(CC(=O)N2CCN(Cc3nc4cc(C(=O)N5CCCC5)ccc4n3C)CC2)cc1 [SN00795130] and report it.
13.8

Look up % Inhibition n=1 48h of Cc1ccc(-c2nc(C)sc2CC(=O)N2CCN(Cc3nc(N)c4ccccc4n3)CC2)cc1 [SN00778718] and report it.
9.0

Look up % Inhibition n=1 48h of CCC(OC1CCCC1)C(=O)N1CCN(c2nccn2C)CC1 (stereo not shown) [SN00782691] and report it.
0.0

Look up % Inhibition n=1 48h of CCS(=O)(=O)N1CCC2(CC1)OC(=O)C(C)=C2C(=O)Nc1ccc(C)cc1C [SN00791146] and report it.
0.0
